method.notes: CO2 binding constant (KCO2) calculated from the shift of the second reduction peak in CV
experimental.setup: DMF, 298 K
Would you mind telling me the reported K[CO2] of each entry?
Give just the number in M⁻¹; leave the unit off.

Look at this compound and give its reported K[CO2]. COc1ccc2c(c1)/C(=C1\C(=O)Nc3ccc([N+](=O)[O-])cc31)C(=O)N2 4.45e+08

Another compound to check: O=C1Nc2ccccc2/C1=C1\C(=O)Nc2ccc(Br)cc21 1.12e+09

Another compound to check: O=C1Nc2ccccc2/C1=C1\C(=O)Nc2ccc([N+](=O)[O-])cc21 7.63e+08

Another compound to check: O=C1Nc2cc(Br)ccc2/C1=C1\C(=O)Nc2cc(Br)ccc21 38800
